# credit: patent US20230111363A1

Biological target: T1, human monocarboxylate transporter 1 (MCT1) (human, UniProt P53985 1-500)
T1 sequence: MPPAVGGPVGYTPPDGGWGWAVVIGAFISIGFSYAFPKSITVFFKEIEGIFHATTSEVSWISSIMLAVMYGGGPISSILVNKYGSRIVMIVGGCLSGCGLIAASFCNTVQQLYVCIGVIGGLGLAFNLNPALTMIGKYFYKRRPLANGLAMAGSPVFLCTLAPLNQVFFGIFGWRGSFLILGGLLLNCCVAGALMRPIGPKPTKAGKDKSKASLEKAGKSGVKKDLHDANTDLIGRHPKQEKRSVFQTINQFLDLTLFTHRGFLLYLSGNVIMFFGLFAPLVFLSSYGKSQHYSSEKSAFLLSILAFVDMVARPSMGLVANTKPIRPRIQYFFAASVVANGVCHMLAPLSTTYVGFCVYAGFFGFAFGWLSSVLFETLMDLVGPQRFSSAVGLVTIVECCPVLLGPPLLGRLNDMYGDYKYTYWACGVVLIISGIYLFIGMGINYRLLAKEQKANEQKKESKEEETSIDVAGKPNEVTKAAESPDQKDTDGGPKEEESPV
Assay: cell-based or functional assay
Decision: IC50 of inhibition of MCT1 mediated transport (bromopyruvate assay, HEK293T cells) beneath 0.04 µM gives satisfied; IC50 of inhibition of MCT1 mediated transport (bromopyruvate assay, HEK293T cells) meeting or exceeding 0.04 µM gives not satisfied.

Examples with answers:
Binder	Cat
anti-human MCT1 antibody Ab13 (antibody, human IgG1, kappa, V domains shown, IgG1EN backbone) VH: QVQLVQSGAEVKKPGASVKVSCTVSGRSLTNYHLQWVRQAPGQGLEWMGFIRSSGNTEYNSEFKSRVTMTRDTSTSTVYMELSSLRSEDTAVYYCARNRWRHGTYYSPGYYVMDAWGQGTLVTVSS VL: EIVLTQSPGTLSLSPGERATLSCKGSQNIENYLAWYQQKPGQAPRLLIYNRHNLQTGIPDRFSGSGSGTDFTLTISRLEPEDFAVYYCYQYSDGYTFGGGTKVEIKR	not satisfied
anti-human MCT1 antibody Ab8 (antibody, human IgG1, kappa, V domains shown, IgG1EN backbone) VH: QVQLVQSGAEVKKPGASVKVSCTVSGRSLTNYHLQWVRQAPGQGLEWMGFIRSSGNTIYNSEFKSRVTMTRDTSTSTVYMELSSLRSEDTAVYYCARNRWYHGTYYSPGYYVMDAWGQGTLVTVSS VL: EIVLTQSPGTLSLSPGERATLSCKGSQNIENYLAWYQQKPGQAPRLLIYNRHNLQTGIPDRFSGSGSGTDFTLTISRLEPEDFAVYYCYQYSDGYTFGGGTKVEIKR	satisfied
anti-human MCT1 antibody Ab7 (antibody, human IgG1, kappa, V domains shown, IgG1EN backbone) VH: QVQLVQSGAEVKKPGASVKVSCTVSGRSRTNYHLQWVRQAPGQGLEWMGFIRSSGNTEYNSEFKSRVTMTRDTSTSTVYMELSSLRSEDTAVYYCARNRWYHGTYYSPGYYVMDAWGQGTLVTVSS VL: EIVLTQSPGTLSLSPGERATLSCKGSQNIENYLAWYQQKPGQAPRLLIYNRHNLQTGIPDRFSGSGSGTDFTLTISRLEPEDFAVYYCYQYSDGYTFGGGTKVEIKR	satisfied

Now take the following binder into account.
Input: API: query returns whether the binder falls strictly under 0.04 µM in IC50 of inhibition of MCT1 mediated transport (bromopyruvate assay, HEK293T cells). Query: anti-human MCT1 antibody Ab9 (antibody, human IgG1, kappa, V domains shown, IgG1EN backbone) VH: QVQLVQSGAEVKKPGASVKVSCTVSGRSLTNYHIQWVRQAPGQGLEWMGFIRSSGNTEYNSEFKSRVTMTRDTSTSTVYMELSSLRSEDTAVYYCARNRWYHGTYYSPGYYVMDAWGQGTLVTVSS VL: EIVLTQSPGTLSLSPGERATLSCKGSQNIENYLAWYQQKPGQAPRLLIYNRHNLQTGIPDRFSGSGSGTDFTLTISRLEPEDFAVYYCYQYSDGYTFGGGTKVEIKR
Output: satisfied
